- Tested Target: T1, human MSLN-FL-his protein (human, UniProt Q13421 296-580)
- T1 construct: Made in HEK293E cells, purified on nickel column; it is put last here; also called human MSLN full-length protein; hMSLN-FL-his; not shown: His tag
- T1 sequence (Q13421 other isoform, or with tags, fused parts or gaps): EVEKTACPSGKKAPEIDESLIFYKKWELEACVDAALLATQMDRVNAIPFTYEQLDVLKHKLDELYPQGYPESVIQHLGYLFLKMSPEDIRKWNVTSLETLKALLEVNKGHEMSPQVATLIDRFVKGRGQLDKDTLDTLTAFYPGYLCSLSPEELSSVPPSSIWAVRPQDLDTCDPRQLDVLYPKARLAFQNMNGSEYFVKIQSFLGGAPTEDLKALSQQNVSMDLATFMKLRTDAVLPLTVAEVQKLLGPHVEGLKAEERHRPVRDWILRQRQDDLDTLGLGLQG
- Protocol Text: ELISA on coated antigen, antibody 0.0001 nM

# Binder, Output Unit, OD450
data = [
    ("S009-F8-36.12 (antibody, human IgG1, kappa, V domains shown, Human-murine chimeric antibody, human IgG1 heavy and kappa light constant regions) VH: EVQLQQSGPELVKPGASVKISCKASGYTFTDYYMNWVKQSHGKSLEWIGDINPNNGGTSYNQKFKGKATLTVDKSSSTAYMELRSLTSEDSAVYYCASWGYGSSSRGYFDYWGQGTTLTVSS VL: QIVLSQSPAILSASPGEKVTMTCRASSSVSYMHWYQQKPGSSPKPWIYATSNLASGVPARFSGSGSGTSYSLTISRVEAEDAATYYCQQWSSNPWTFGGGTKLEIKR", "OD", 0.05),
    ("S009-F8-29.1 (antibody, human IgG1, kappa, V domains shown, Human-murine chimeric antibody, human IgG1 heavy and kappa light constant regions) VH: QVQLQQSGAELARPGASVKMSCKASGYTFISYTMHWVKQRPGQGLEWIGYINPSSGYTKYNQKFKDKATLTADKSSSTAYMQLNSLTSEDSAVYYCARYYSNPDYYAMDYWGQGTSVTVSS VL: QIVLTQSPAIMSASPGEKVTITCSASSSVSYMHWFQQKPGTSPKLWIYSTSNLASGVPARFSGSGSGTSYSLTISRMEAEDAATYYCQQRSSYPLTFGGGTKLELKR", "OD", 0.07),
    ("S009-F8-13.8 (antibody, human IgG1, kappa, V domains shown, Human-murine chimeric antibody, human IgG1 heavy and kappa light constant regions) VH: EFQLQQSGPELVKPGASVKISCKASGYSFTDYNMNWVKQTNGKSLEWIGIINPNYGTSSYNQKFKGKATLTVDQSSSTAYMQLNSLTSEDSAVYYCARVGRDNSGFDYWGQGTTLTVSS VL: QIVLTQSPAIMSASPGEKVTMTCSASSSVSYMYWYQQKPGSSPRLLIYDTSNLASGVPVRFSGSGSGTSYSLTISRMEAEDAATYYCQQWSSYPPTFGSGTELEIKR", "OD", 0.05),
]
